Data provenance: paper PMC10714399

# Test system: Staphylococcus aureus NCTC 13373 (mecA-positive; methicillin-resistant)
# measurementNotes: In vitro antibacterial activity, MIC (UCL School of Pharmacy assay), MRSA
# Type: cell-based
For each entry below, report its MRSA MIC value.
Express your answer in µg/mL, writing the number without its unit.

Exercise: Indicate the recorded MRSA MIC value for this compound: `CC(=O)N(c1ccc(F)cc1)c1c(-c2ccccn2)nc2ccccn12`
Solution: 32

Exercise: Quick one: give measured MRSA MIC for `c1ccc(-c2nc3n(c2-c2ccc4c(c2)OCO4)CCCC3)nc1`
Solution: 16

Exercise: Could you please provide reported MRSA MIC for `COc1ccn2c(Nc3ccc(F)cn3)c(-c3ccccn3)nc2c1.O=CO` ? Thanks!
Solution: 16

---

Assign MIC to each entry below.
# System: Staphylococcus aureus NCTC 13373 (mecA-positive; methicillin-resistant)
# measurementNotes: In vitro antibacterial activity, MIC (UCL School of Pharmacy assay), MRSA
# Format: cell-based
# conditionSummary: Staphylococcus aureus, UCL; read-out: MRSA MIC (UCL)

Exercise: In one line, give reported MIC of the entry `COc1ccn2c(-c3cccc(Cl)n3)c(-c3ccccn3)nc2c1` .
Solution: > 32 µg/mL

Exercise: Given the molecule `COc1ccc(-c2nc3ccc(C)cn3c2NCc2ccco2)cc1OC` , write its reported MIC.
Solution: > 32 µg/mL

Exercise: Retrieve MIC measured for `COCc1ccc2nc(-c3ccccn3)c(Nc3cccc(F)c3)n2c1` and print it.
Solution: > 32 µg/mL

---

# measurementNotes: Human plasma protein binding (PPB)
# Type: in vitro ADME
# conditionSummary: human, plasma; read-out: Human PPB (converted)
endpoint: fraction unbound
API doc: respond with a numeric literal and nothing else, no unit.

Exercise: Return fraction unbound (reported value) for this compound: `c1ccc(-c2nc3n(c2-c2ccc4sccc4c2)CCC3)nc1`
Solution: 0.023

Exercise: Return value of fraction unbound for input `Cc1ccc(-c2c(-c3ccccn3)nc3ccccn23)cc1` , no commentary.
Solution: 0.01

Exercise: Give me measured fraction unbound, please, for this compound: `Cc1ccc(-c2c(-c3ccccn3)nc3cc(Cl)ccn23)cc1`
Solution: 0.01

---

Record form. Attribute: MRSA MIC. Fill in for each entry.
# Test system: Staphylococcus aureus NCTC 13373 (mecA-positive; methicillin-resistant)
# measurementNotes: In vitro antibacterial activity, MIC (UCL School of Pharmacy assay), MRSA
# Type: cell-based

Exercise: Entry `N#Cc1ccc(-c2c(-c3ccccn3)nc3cnccn23)cc1` needs its MRSA MIC filled in; supply it.
Solution: > 32 µg/mL

Exercise: Respond only with MRSA MIC recorded for `Cc1ccc(-c2c(-c3ccccn3)nc3cc(N4CCNCC4)ccn23)cc1`
Solution: > 32 µg/mL

Exercise: Tell me measured MRSA MIC for `Cc1ccn2c(NC3CCCC3)c(-c3ccc(N(C)C)cc3)nc2c1` please.
Solution: > 32 µg/mL
